For each of the compounds below, state its Activity value (score).
- testTarget: binding between ALS-related mutant SOD1 (Flag-SOD1 G93A) and Derlin-1 (Derlin-1-HA) (Homo sapiens, UniProt P00441+Q9BUN8, G94A)
- Construct: expressed in transfected cells; host or cells: HEK293A
- Sequence (P00441 whole entry G94A, species assumed): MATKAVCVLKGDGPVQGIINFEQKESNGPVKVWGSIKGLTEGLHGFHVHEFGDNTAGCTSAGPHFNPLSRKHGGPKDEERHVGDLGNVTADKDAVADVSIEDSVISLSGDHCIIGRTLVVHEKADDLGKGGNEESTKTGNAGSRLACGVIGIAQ
- Sequence (Q9BUN8 whole entry, species assumed, stated change not applied): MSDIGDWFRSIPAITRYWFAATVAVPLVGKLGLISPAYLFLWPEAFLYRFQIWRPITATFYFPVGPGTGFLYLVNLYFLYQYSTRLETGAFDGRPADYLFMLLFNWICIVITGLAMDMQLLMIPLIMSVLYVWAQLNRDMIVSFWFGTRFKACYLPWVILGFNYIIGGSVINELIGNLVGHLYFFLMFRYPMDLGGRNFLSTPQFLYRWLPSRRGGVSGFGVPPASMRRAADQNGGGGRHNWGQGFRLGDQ
- protocolText: Cell-based co-immunoprecipitation assay of mutant SOD1 (G93A)-Derlin-1 binding
- Design: key: a compound exhibiting no inhibitory activity is set at 0; a compound exhibiting inhibitory activity is set at 1; a compound exhibiting significant inhibitory activity is set at 2; a compound having higher inhibitory activity than the compound of Example 1 is set at 3
- conditionLabel: assay concentration 20 μM; HEK293A cells overexpressing Flag-SOD1 G93A and Derlin-1-HA
Response field accepts a number only; no unit should be typed.

compound Nc1c(C(=O)Nc2ccc(-c3cc(C(F)(F)F)cc(C(F)(F)F)c3)cc2)sc2nc(-c3cccnc3)ccc12 [Example 30] , Activity value (score) observed: 1

Reported Activity value (score) of C=CCN(C(=O)c1sc2nc(-c3ccncc3)ccc2c1N)c1cc(F)cc(F)c1 [Example 22] : 2

Entry CC1(C)CCN(C(=O)c2sc3nc(-c4cccnc4)ccc3c2N)c2ccccc21 [Example 41] — recorded Activity value (score) = 3

response.value for C=CCN(C(=O)c1sc2nc(-c3cccnc3)ccc2c1N)c1cc(F)ccc1C [Example 18] (field: Activity value (score)) = 2

Activity value (score) reading for C#CCN(C(=O)c1sc2nc(-c3cccnc3)ccc2c1N)c1ccc(F)cc1 [Example 35] : 1

get_value(item= Nc1c(C(=O)N2CCCCc3ccccc32)sc2nc(-c3cccnc3)ccc12 [Example 14] , readout=Activity value (score)) returns 2

Notebook: CC1(C)CCN(C(=O)c2sc3nc(-c4ccncc4)ccc3c2N)c2ccccc21 [Example 44] , Activity value (score) read as 1

Activity value (score) measured on C#CCOC/C=C\CN(C(=O)c1sc2nc(-c3cccnc3)ccc2c1N)c1ccccc1 [Example 36] = 1

// Activity value (score) value for Nc1c(C(=O)N2CCCc3ccccc32)sc2nc(-c3cccnc3)ccc12 [Example 3] : 2

Note to self: Activity value (score) recorded for CC(C)=CCN(C(=O)c1sc2nc(-c3ccncc3)ccc2c1N)c1ccc(C(C)(C)C)cc1 [Example 43] was 1

Record CC(C)=CCN(C(=O)c1sc2nc(-c3cccnc3)ccc2c1N)c1ccccc1 [Example 13] . Reported Activity value (score): 2

Recorded result, C=CCN(C(=O)c1sc2nc(-c3ccncc3)ccc2c1N)c1cccc(S(F)(F)(F)(F)F)c1 [Example 23] , Activity value (score): 2

The value of Activity value (score) measured for the compound CCCN(C(=O)c1sc2nc(-c3cccnc3)ccc2c1N)c1ccc(F)c(F)c1F [Example 11] turned out to be 2

Per the records, this compound ( Nc1c(C(=O)N(CC=C2CCCC2)c2ccccc2)sc2nc(-c3cccnc3)ccc12 [Example 40] ) has Activity value (score) equal to 1

Query C=C(C)CN(C(=O)c1sc2nc(-c3cccnc3)ccc2c1N)c1ccc(F)cc1 [Example 34] yields Activity value (score) of 1

Lookup result for C=CCN(C(=O)c1sc2nc(-c3ccncc3)ccc2c1N)c1ccc(F)c(F)c1 [Example 19] ; measured Activity value (score): 2

Quick note, Activity value (score) for C=CCN(C(=O)c1sc2nc(-c3cccnc3)ccc2c1N)c1cc(F)cc(F)c1 [Example 20] landed at 2
